- Tested on: CCRF-CEM leukemia
- ASSAY DETAILS: NCI tumour cell line growth inhibition, 48 h
Record form. Attribute: TGI. Fill in for each entry.

Prompt: Which measured TGI value corresponds to `CCC(=O)Nc1ccc(NCC(=O)Nc2ccc(OC)cc2)cc1` ?
Completion: > 100 µM

Prompt: Which measured TGI value corresponds to `Nc1c2cc3ccc2nc2ccc(cc12)OCCOCCOCCOCCOCCOCCO3` ?
Completion: > 10 µM

Prompt: Which measured TGI value corresponds to `COc1cc(Nc2ncnc(Nc3ccc4c(n3)NC(=O)C(C)(C)O4)n2)cc(OC)c1OC` ?
Completion: > 100 µM

Prompt: Which measured TGI value corresponds to `C=CCn1c(-c2ccc(Cl)cc2)csc1=Nc1ccccc1OC` ?
Completion: > 100 µM

Prompt: Which measured TGI value corresponds to `Cc1nc(Nc2ccc(Cl)c(Cl)c2)sc1C(=O)/C=C/c1ccc2c(c1)OCO2` ?
Completion: > 100 µM

Prompt: Which measured TGI value corresponds to `CNCCCNc1c2ccccc2nc2cccc([N+](=O)[O-])c12` ?
Completion: 0.0143 µM

Prompt: Which measured TGI value corresponds to COc1ccc(C2C3=C(COC3=O)OC(C)(C)Oc3cc4c(cc32)OCO4)cc1OC (stereo unspecified) ?
Completion: > 100 µM

Prompt: Which measured TGI value corresponds to `NCCOc1ncccc1/C=C1\c2ccccc2-c2ccc([N+](=O)[O-])cc21` ?
Completion: 0.0973 µM

Prompt: Which measured TGI value corresponds to NC(=S)N/N=C1/CN(c2ccc(Cl)c(Cl)c2)CC(=O)C1c1nc2ccccc2s1 (stereo unspecified) ?
Completion: > 100 µM

Prompt: Which measured TGI value corresponds to `CC1=C(C#N)C(/C=C(\Cl)c2ccc(F)cc2)C(C#N)=C(C)N1` ?
Completion: > 100 µM

Prompt: Which measured TGI value corresponds to COc1ccc2c3c1OC1C(OC)(OC)CC4(C=C2)CN(C)CCC314 (stereo unspecified) ?
Completion: > 100 µM
